Values from ChEMBL document CHEMBL1201862

Target desc: Corticotropin-releasing factor receptor 2/Corticotropin-releasing factor-binding protein (Homo sapiens, UniProt P24387+Q13324)
Sequence (Q13324 whole entry): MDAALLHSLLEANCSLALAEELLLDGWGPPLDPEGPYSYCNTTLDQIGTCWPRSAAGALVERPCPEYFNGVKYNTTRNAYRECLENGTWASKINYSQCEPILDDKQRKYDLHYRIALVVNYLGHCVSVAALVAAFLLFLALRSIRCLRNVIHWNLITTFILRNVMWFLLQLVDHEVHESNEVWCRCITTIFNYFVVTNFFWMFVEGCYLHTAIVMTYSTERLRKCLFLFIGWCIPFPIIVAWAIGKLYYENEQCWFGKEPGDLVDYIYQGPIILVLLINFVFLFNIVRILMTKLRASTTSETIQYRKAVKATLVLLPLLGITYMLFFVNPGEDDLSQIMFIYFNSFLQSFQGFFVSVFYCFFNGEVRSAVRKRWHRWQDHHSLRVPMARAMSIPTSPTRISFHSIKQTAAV
Sequence (P24387 whole entry): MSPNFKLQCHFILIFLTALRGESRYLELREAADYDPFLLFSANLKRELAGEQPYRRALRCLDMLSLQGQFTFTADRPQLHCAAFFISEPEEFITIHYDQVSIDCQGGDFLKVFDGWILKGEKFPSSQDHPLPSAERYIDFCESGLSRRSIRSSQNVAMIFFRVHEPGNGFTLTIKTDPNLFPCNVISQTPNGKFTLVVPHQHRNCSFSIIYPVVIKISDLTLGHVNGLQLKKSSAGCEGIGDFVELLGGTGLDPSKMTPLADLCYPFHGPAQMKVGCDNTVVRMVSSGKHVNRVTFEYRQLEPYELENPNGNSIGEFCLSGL
Assay comment: Dose Response confirmation of uHTS hits for small molecule antagonists of the CRF-binding protein and CRF-R2 receptor complex.
Assay type: functional
Conditions used: read-out: IC50_Mean
Calls of active or inactive are those of the source.
Write down the outcome that applies. Available outcomes: active, inactive

Hi team, can someone confirm the assay call for `Cc1ccc(-c2cc(C(=O)NCc3ccccn3)c3ccccc3n2)cc1C` ?
inactive

---

Target desc: UniProt P11413
Sequence (P11413 whole entry): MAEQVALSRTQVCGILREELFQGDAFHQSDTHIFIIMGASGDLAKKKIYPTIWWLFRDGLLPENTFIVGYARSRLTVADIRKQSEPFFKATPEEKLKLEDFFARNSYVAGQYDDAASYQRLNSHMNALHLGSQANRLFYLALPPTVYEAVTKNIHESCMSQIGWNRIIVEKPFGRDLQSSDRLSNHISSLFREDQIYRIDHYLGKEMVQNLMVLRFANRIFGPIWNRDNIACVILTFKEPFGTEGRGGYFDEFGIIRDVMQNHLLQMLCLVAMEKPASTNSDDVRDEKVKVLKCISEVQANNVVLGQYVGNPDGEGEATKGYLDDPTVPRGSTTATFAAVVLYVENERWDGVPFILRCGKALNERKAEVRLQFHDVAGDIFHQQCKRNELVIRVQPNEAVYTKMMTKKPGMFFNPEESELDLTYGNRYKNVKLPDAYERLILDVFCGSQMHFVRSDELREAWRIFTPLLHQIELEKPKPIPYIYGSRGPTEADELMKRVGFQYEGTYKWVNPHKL
Assay comment: inhibition of Homo sapiens G6PD, dose series – biochemical, fluorescence, selectivity assay for P. falciparum G6PD inhibitor project, dose response (AID 504792)
Format: functional
Activity calls are given as the source filed them.
Outcomes you can answer with include only these: yes (1) = active, no (0) = inactive

For `COC(=O)c1ccccc1NC1=C/C(=N\S(=O)(=O)c2cccs2)c2ccccc2C1=O` , what call appears in the results of this test?
no (0)

Outcome logged for `COc1cc(NCc2ccccc2)c2ncn(Cc3ccccc3)c2c1` in this assay:
no (0)

Record lookup: outcome of this test for `Cc1cccc(C(=O)Nc2nnc(S(=O)(=O)N3CCOCC3)s2)c1` ?
no (0)

Record lookup: outcome of this test for `Cc1ccc(NC(=O)Cn2sc3ccccc3c2=O)cc1` ?
yes (1)

Fill in: this test's call for `CC1(C)Cc2c(sc3nc4n(-c5ccccc5)c(=O)c(CCC(=O)O)nn4c(=O)c23)CO1` is ___
no (0)

Hi, sorry to bother you, what did the test record for `C/C(Cn1nnc([N+](=O)[O-])n1)=N\NC(=O)c1ccc(O)cc1` ?
no (0)

Check the results log: what was the call for `Cc1cc(C)c[n+](C2=C([N-]S(=O)(=O)c3cccs3)C(=O)c3ccccc3C2=O)c1` ?
no (0)

For CCN1CCCC1CNC(=O)c1ccc2c(c1)NC(=O)/C(=C\c1ccccc1F)S2 (stereo not drawn) , which call appears in the assay record?
no (0)
